# Assay Protocol: Micafungin plasma pharmacokinetics in adult patients treated with ECMO (samples before and after the oxygenation membrane)
# Type: in vivo, human
# Measurement Setup: human, plasma, iv, 100 mg, Table 2, day 4, before membrane, 100mg iv, ECMO patients, plasma HPLC, noncompartmental, median; read-out: AUC in
*1 amine or outer side, *2 acyl side, *3 side chain or, on linkers, in order; H or OH if unused. Where a SMILES comes first, the peptide text is derived from it. Bridges are numbered along the chain shown (N, C = ends). [ ]: non-standard residue; d: D form. The star is where a group is joined. hTyr(3S-OH,4S-OH,3'-OSO3H) = N[C@H](C(=O)O)[C@H](O)[C@@H](O)c1ccc(O)c(OS(=O)(=O)O)c1; Orn(4R-OH,5R-OH) = O=C([C@H](C[C@@H](O)[C@@H](O)N[*:3])N[*:1])[*:2]; Pro(3S-OH,4S-Me) = C[C@H]1CN[C@H](C(=O)O)[C@H]1O; X1 = CCCCCOc1ccc(-c2cc(-c3ccc(C(=O)*)cc3)no2)cc1; Gln(3R-OH) = NC(=O)C[C@@H](O)[C@H](N)C(=O)O; Hyp = O=C(O)[C@@H]1C[C@@H](O)CN1
Measurement Kind: AUC (ng·h/mL)
Write the answer as a number in ng·h/mL, unit excluded.

Query block: Reported AUC, molecule CCCCCOc1ccc(-c2cc(-c3ccc(C(=O)N[C@H]4C[C@@H](O)[C@@H](O)NC(=O)[C@@H]5[C@@H](O)[C@@H](C)CN5C(=O)[C@H]([C@H](O)CC(N)=O)NC(=O)[C@H]([C@H](O)[C@@H](O)c5ccc(O)c(OS(=O)(=O)O)c5)NC(=O)[C@@H]5C[C@@H](O)CN5C(=O)[C@H]([C@@H](C)O)NC4=O)cc3)no2)cc1 [micafungin] (X1-[Orn(4R-OH,5R-OH)]T[Hyp][hTyr(3S-OH,4S-OH,3'-OSO3H)][Gln(3R-OH)][Pro(3S-OH,4S-Me)]; lactam 1-C) : ____
Result block: 88800

----------
# Assay Protocol: Micafungin plasma pharmacokinetics in adult patients treated with ECMO (samples before and after the oxygenation membrane)
# Type: in vivo, human
# Measurement Setup: human, plasma, iv, 100 mg, Table 2, day 4, after membrane, 100mg iv, ECMO patients, plasma HPLC, median; read-out: Cmax out
*1 amine or outer side, *2 acyl side, *3 side chain or, on linkers, in order; H or OH if unused. Where a SMILES comes first, the peptide text is derived from it. Bridges are numbered along the chain shown (N, C = ends). [ ]: non-standard residue; d: D form. The star is where a group is joined. hTyr(3S-OH,4S-OH,3'-OSO3H) = N[C@H](C(=O)O)[C@H](O)[C@@H](O)c1ccc(O)c(OS(=O)(=O)O)c1; Orn(4R-OH,5R-OH) = O=C([C@H](C[C@@H](O)[C@@H](O)N[*:3])N[*:1])[*:2]; Pro(3S-OH,4S-Me) = C[C@H]1CN[C@H](C(=O)O)[C@H]1O; X1 = CCCCCOc1ccc(-c2cc(-c3ccc(C(=O)*)cc3)no2)cc1; Gln(3R-OH) = NC(=O)C[C@@H](O)[C@H](N)C(=O)O; Hyp = O=C(O)[C@@H]1C[C@@H](O)CN1
Measurement Kind: Cmax
Field note: include the unit after the figure.

Query block: So what's the measured Cmax for this one? CCCCCOc1ccc(-c2cc(-c3ccc(C(=O)N[C@H]4C[C@@H](O)[C@@H](O)NC(=O)[C@@H]5[C@@H](O)[C@@H](C)CN5C(=O)[C@H]([C@H](O)CC(N)=O)NC(=O)[C@H]([C@H](O)[C@@H](O)c5ccc(O)c(OS(=O)(=O)O)c5)NC(=O)[C@@H]5C[C@@H](O)CN5C(=O)[C@H]([C@@H](C)O)NC4=O)cc3)no2)cc1 [micafungin] (X1-[Orn(4R-OH,5R-OH)]T[Hyp][hTyr(3S-OH,4S-OH,3'-OSO3H)][Gln(3R-OH)][Pro(3S-OH,4S-Me)]; lactam 1-C)
Result block: 6750 ng/mL

----------
# Assay Protocol: Micafungin plasma pharmacokinetics in adult patients treated with ECMO (samples before and after the oxygenation membrane)
# Format: in vivo, human
# Measurement Setup: human, plasma, iv, 100 mg, Table 2, day 1, after membrane, 100mg iv, ECMO patients, plasma HPLC, median; read-out: Cmax out
*1 amine or outer side, *2 acyl side, *3 side chain or, on linkers, in order; H or OH if unused. Where a SMILES comes first, the peptide text is derived from it. Bridges are numbered along the chain shown (N, C = ends). [ ]: non-standard residue; d: D form. The star is where a group is joined. hTyr(3S-OH,4S-OH,3'-OSO3H) = N[C@H](C(=O)O)[C@H](O)[C@@H](O)c1ccc(O)c(OS(=O)(=O)O)c1; Orn(4R-OH,5R-OH) = O=C([C@H](C[C@@H](O)[C@@H](O)N[*:3])N[*:1])[*:2]; Pro(3S-OH,4S-Me) = C[C@H]1CN[C@H](C(=O)O)[C@H]1O; X1 = CCCCCOc1ccc(-c2cc(-c3ccc(C(=O)*)cc3)no2)cc1; Gln(3R-OH) = NC(=O)C[C@@H](O)[C@H](N)C(=O)O; Hyp = O=C(O)[C@@H]1C[C@@H](O)CN1
Measurement Kind: Cmax

Query block: Form field: reported Cmax of CCCCCOc1ccc(-c2cc(-c3ccc(C(=O)N[C@H]4C[C@@H](O)[C@@H](O)NC(=O)[C@@H]5[C@@H](O)[C@@H](C)CN5C(=O)[C@H]([C@H](O)CC(N)=O)NC(=O)[C@H]([C@H](O)[C@@H](O)c5ccc(O)c(OS(=O)(=O)O)c5)NC(=O)[C@@H]5C[C@@H](O)CN5C(=O)[C@H]([C@@H](C)O)NC4=O)cc3)no2)cc1 [micafungin] (X1-[Orn(4R-OH,5R-OH)]T[Hyp][hTyr(3S-OH,4S-OH,3'-OSO3H)][Gln(3R-OH)][Pro(3S-OH,4S-Me)]; lactam 1-C)
Result block: 4950 ng/mL
